The measured values listed here are drawn from patent US7829580B2.

tested on: platelet coagulation; assay: Inhibitory activities of test compounds against platelet coagulation in vitro (ADP-induced, rat platelet-rich plasma, aggregometer); assay type: cell-based; conditions: 5 min, 10 μg/ml test substance in rat PRP, maximum rate of platelet coagulation over 5 min, read-out: Test Example 1 (% inhibition)
Counter-ions that a name gives are not always drawn.
Metric Name: inhibition at 10 µg/mL (%)
Give the quantity in %, number only.

Could you tell me which inhibition at 10 µg/mL is on file for CCOC(=O)CCn1ccc(/C=C2\CN(C(C(=O)C3CC3)c3ccccc3F)CCC2S)n1 (stereo not shown) [Example 112, hydrochloride] ? 75

How about O=C(O)CCn1nnnc1/C=C1\CN(C(C(=O)C2CC2)c2ccccc2F)CCC1S (stereo not shown) [Example 258, hydrochloride] ? 85

How about O=C(O)CCCn1ccc(/C=C2\CN(C(C(=O)C3CC3)c3ccccc3F)CCC2S)n1 (stereo not shown) [Example 117, hydrochloride] ? 70

How about O=C(O)CCCCn1ccc(/C=C2\CN(C(C(=O)C3CC3)c3ccccc3F)CCC2S)n1 (stereo not shown) [Example 121, hydrochloride] ? 55

How about O=C(O)CCn1ncc(/C=C2\CN(C(C(=O)C3CC3)c3ccccc3F)CCC2S)n1 (stereo not shown) [Example 242, hydrochloride] ? 75

How about O=C(O)CCn1nncc1/C=C1\CN(C(C(=O)C2CC2)c2ccccc2F)CCC1S (stereo not shown) [Example 134, hydrochloride] ? 85

How about O=C(O)CCCn1cc(/C=C2\CN(C(C(=O)C3CC3)c3ccccc3F)CCC2S)nn1 (stereo not shown) [Example 143, hydrochloride] ? 81

How about O=C(CCCn1nncc1/C=C1\CN(C(C(=O)C2CC2)c2ccccc2F)CCC1S)NO (stereo not shown) [Example 262, hydrochloride] ? 71

How about O=C(O)Cn1ccc(/C=C2\CN(C(C(=O)C3CC3)c3ccccc3F)CCC2S)n1 (stereo not shown) [Example 77, hydrochloride] ? 76

How about O=C(O)CCn1nnc(/C=C2\CN(C(C(=O)C3CC3)c3ccccc3F)CCC2S)n1 (stereo not shown) [Example 257, hydrochloride] ? 87

----------
Kindly state inhibition at 10 µg/mL for each of the entries shown.
Test system: platelet coagulation
Assay: Inhibitory activities of test compounds against platelet coagulation ex vivo (oral administration to rats 4 hrs prior to blood collection, ADP-induced, PRP)
Type: in vivo, rat
Conditions: Rattus norvegicus, Platelet, po, 4 h, read-out: Test Example 2 (% inhibition)
Experimental: Three to four male Sprague-Dawley rats (8 weeks of age, Japan SLC., Inc.) per group were used in the present test. […] In the control group, the vehicle was similarly and orally administered at the rate of 1 mL/kg 4 hrs prior to the blood collection. […] Platelet count in PRP was determined by automated hematology analyzer (KX-21N, SYSMEX CORPORATION) and adjusted as 5×10^8/ml. After PRP (240 μl) was put into each cuvette, the platelet coagulation was assessed by automated hematology analyzer. […]
Counter-ions that a name gives are not always drawn.
Give the quantity in %, number only.

Could you tell me which inhibition at 10 µg/mL is on file for CC(=O)SC1CCN(C(C(=O)C2CC2)c2ccccc2F)C/C1=C\c1ccn(CCC(=O)O)n1 (stereo not shown) [Example 114, hydrochloride] ? 81

How about O=C(O)CCn1nnc(/C=C2\CN(C(C(=O)C3CC3)c3ccccc3F)CCC2S)n1 (stereo not shown) [Example 257, hydrochloride] ? 51

How about O=C(CCCn1nncc1/C=C1\CN(C(C(=O)C2CC2)c2ccccc2F)CCC1S)NO (stereo not shown) [Example 262, hydrochloride] ? 91

How about O=C(O)Cn1ccc(/C=C2\CN(C(C(=O)C3CC3)c3ccccc3F)CCC2S)n1 (stereo not shown) [Example 77, hydrochloride] ? 77

----------
test system: platelet coagulation; test: Inhibitory activities of test compounds against platelet coagulation ex vivo (oral administration to rats 4 hrs prior to blood collection, ADP-induced, PRP); format: in vivo, rat; settings: Rattus norvegicus, Platelet, po, 4 h, read-out: Test Example 2 (% inhibition)
Counter-ions that a name gives are not always drawn.
Metric Name: inhibition at 10 µg/mL (%)
Give the quantity in %, number only.

Lookup: inhibition at 10 µg/mL / platelet coagulation / O=C(O)CCCCn1ccc(/C=C2\CN(C(C(=O)C3CC3)c3ccccc3F)CCC2S)n1 (stereo not shown) [Example 121, hydrochloride] 72

How about O=C(O)CCn1ncc(/C=C2\CN(C(C(=O)C3CC3)c3ccccc3F)CCC2S)n1 (stereo not shown) [Example 242, hydrochloride] ? 82

How about O=C(O)CCCn1ccc(/C=C2\CN(C(C(=O)C3CC3)c3ccccc3F)CCC2S)n1 (stereo not shown) [Example 117, hydrochloride] ? 63

How about CCOC(=O)Cn1ccc(/C=C2/CN(C(C(=O)C3CC3)c3ccccc3F)CCC2S)n1 (stereo not shown) [Example 154, hydrochloride] ? 79

How about O=C(O)CCCn1cc(/C=C2\CN(C(C(=O)C3CC3)c3ccccc3F)CCC2S)nn1 (stereo not shown) [Example 143, hydrochloride] ? 69

How about CCOC(=O)CCn1ccc(/C=C2\CN(C(C(=O)C3CC3)c3ccccc3F)CCC2S)n1 (stereo not shown) [Example 112, hydrochloride] ? 91

How about O=C(O)CCn1nnnc1/C=C1\CN(C(C(=O)C2CC2)c2ccccc2F)CCC1S (stereo not shown) [Example 258, hydrochloride] ? 76
